Test system: Staphylococcus aureus
Test: Compound (100 uM) was evaluated for its inhibitory activity against VRS (valyl tRNA synthetase) from staphylococcus aureus WCUH29; no inhibition
Active and inactive are the calls of the source. The rule behind the calls is not given here.
Test Readout: inhibition

Item Smiles | Endpoint Value
CC[C@H](C)[C@H](NC(=O)OCc1ccccc1)C(=O)NS(=O)(=O)CC(=O)N[C@@]1(C(=O)OC)[C@@H](OC(=O)[C@@H](NC(=O)OCc2ccccc2)[C@@H](C)CC)C[C@H]2C(C(N)=O)=CN(C)C[C@H]21 | inactive
CC[C@H](C)CC(=O)NS(=O)(=O)CC(=O)N[C@@]1(C(=O)OCc2ccccc2)[C@@H](OC(=O)C[C@@H](C)CC)C[C@H]2C(C(N)=O)=CN(C)C[C@H]21 | 6%
CC[C@H](C)CC(=O)NS(=O)(=O)CC(=O)N[C@@]1(C(=O)OC)[C@@H](OC(=O)C[C@@H](C)CC)C[C@H]2C(C(N)=O)=CN(C)C[C@H]21 | inactive
CC[C@H](C)CC(=O)NS(=O)(=O)CC(=O)N[C@]1(C(=O)O)[C@@H]2CN(C)C=C(C(N)=O)[C@@H]2C[C@@H]1O | inactive
CC[C@H](C)CC(=O)NS(=O)(=O)CC(=O)N[C@]1(C(=O)OC)[C@@H]2CN(C)C=C(C(N)=O)[C@@H]2C[C@@H]1O | inactive

====

// values below are IC50; system is Isoleucyl-tRNA synthetase (Rattus norvegicus)
Sequence (O35880 whole entry): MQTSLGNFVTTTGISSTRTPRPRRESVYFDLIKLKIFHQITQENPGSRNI

Item Smiles | Target | IC50
CC[C@H](C)[C@H](NC(=O)OCc1ccccc1)C(=O)NS(=O)(=O)CC(=O)N[C@@]1(C(=O)OC)[C@@H](OC(=O)[C@@H](NC(=O)OCc2ccccc2)[C@@H](C)CC)C[C@H]2C(C(N)=O)=CN(C)C[C@H]21 | Isoleucyl-tRNA synthetase (Rattus norvegicus) | 500 nM
CC(C)[C@H](N)C(=O)NS(=O)(=O)CC(=O)N[C@]1(C(=O)O)[C@@H]2CN(C)C=C(C(N)=O)[C@@H]2C[C@@H]1O | Isoleucyl-tRNA synthetase (Rattus norvegicus) | 2.9 nM
CC[C@H](C)[C@H](N)C(=O)NS(=O)(=O)CC(=O)N[C@]1(C(=O)OC)[C@@H]2CN(C)C=C(C(N)=O)[C@@H]2C[C@@H]1O | Isoleucyl-tRNA synthetase (Rattus norvegicus) | 17 nM
CC[C@H](C)CC(=O)NS(=O)(=O)CC(=O)N[C@]1(C(=O)O)[C@@H]2CN(C)C=C(C(N)=O)[C@@H]2C[C@@H]1O | Isoleucyl-tRNA synthetase (Rattus norvegicus) | 22300 nM
CC[C@H](C)[C@H](N)C(=O)NS(=O)(=O)CC(=O)N[C@]1(C(=O)O)[C@@H]2CN(C)C=C(C(N)=O)[C@@H]2C[C@@H]1O | Isoleucyl-tRNA synthetase (Rattus norvegicus) | 4.2 nM

====

Target: Isoleucine--tRNA ligase (Staphylococcus aureus)
Sequence (P41972 whole entry): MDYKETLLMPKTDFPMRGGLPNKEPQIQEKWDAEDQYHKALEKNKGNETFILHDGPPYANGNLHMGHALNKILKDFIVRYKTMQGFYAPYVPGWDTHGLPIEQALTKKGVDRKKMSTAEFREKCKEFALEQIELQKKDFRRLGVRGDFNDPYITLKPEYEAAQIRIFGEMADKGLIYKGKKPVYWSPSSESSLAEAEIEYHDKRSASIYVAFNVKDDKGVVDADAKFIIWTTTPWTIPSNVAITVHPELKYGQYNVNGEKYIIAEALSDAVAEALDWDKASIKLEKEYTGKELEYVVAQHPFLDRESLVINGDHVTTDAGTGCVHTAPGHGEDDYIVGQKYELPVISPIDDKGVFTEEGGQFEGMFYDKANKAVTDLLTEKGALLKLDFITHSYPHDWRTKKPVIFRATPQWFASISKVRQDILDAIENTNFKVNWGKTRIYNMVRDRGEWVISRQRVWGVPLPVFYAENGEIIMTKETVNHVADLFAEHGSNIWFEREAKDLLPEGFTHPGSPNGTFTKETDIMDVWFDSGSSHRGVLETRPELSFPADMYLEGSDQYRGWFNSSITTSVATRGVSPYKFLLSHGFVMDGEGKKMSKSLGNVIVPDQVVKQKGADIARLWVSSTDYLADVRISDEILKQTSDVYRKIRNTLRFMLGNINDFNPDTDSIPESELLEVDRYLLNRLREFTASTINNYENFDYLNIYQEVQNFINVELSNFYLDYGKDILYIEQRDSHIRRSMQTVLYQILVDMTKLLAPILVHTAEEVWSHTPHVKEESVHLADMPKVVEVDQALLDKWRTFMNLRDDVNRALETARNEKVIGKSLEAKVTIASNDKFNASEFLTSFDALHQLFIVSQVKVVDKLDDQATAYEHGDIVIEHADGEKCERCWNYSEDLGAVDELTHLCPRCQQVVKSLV
Test Readout: log10(IC50) (log10 of the value in nM)

Item Smiles | log10(IC50)
CC[C@H](C)[C@H](N)C(=O)NS(=O)(=O)CC(=O)N[C@]1(C(=O)O)[C@@H]2CN(C)C=C(C(N)=O)[C@@H]2C[C@@H]1O | 1.15
CC[C@H](C)[C@H](N)C(=O)NS(=O)(=O)CC(=O)N[C@]1(C(=O)OC)[C@@H]2CN(C)C=C(C(N)=O)[C@@H]2C[C@@H]1O | 1.78
CC[C@H](C)CC(=O)NS(=O)(=O)CC(=O)N[C@]1(C(=O)O)[C@@H]2CN(C)C=C(C(N)=O)[C@@H]2C[C@@H]1O | 3.51
CC(C)C[C@H](N)C(=O)NS(=O)(=O)CC(=O)N[C@]1(C(=O)O)[C@@H]2CN(C)C=C(C(N)=O)[C@@H]2C[C@@H]1O | 2.96
CC[C@H](C)CC(=O)NS(=O)(=O)CC(=O)N[C@@]1(C(=O)O)[C@@H](OC(=O)C[C@@H](C)CC)C[C@H]2C(C(N)=O)=CN(C)C[C@H]21 | 4.16
